I'd be grateful if you could share measured Dose.FC.LYZ.NS (log2 fold change) for these entries.
Tested on: ENR+CD organoids (ISC to Paneth cell differentiation)
Experiment: Primary screen: basal (non-stimulated) lysozyme secretion LYZ.NS, 2.5-D 384-well ENR+CD organoid differentiation
Assay type: cell-based, mouse
Settings: primary screen, dose 10.00 uM
Please reply with the value in numeric form only.

Challenge: Lab note: need Dose.FC.LYZ.NS (log2 fold change) with ENR+CD organoids (ISC to Paneth cell differentiation) for entry O=C(/C=C\n1cnc(-c2cc(C(F)(F)F)cc(C(F)(F)F)c2)n1)N1CC(F)(F)C1 [KPT-276] , please look it up.
Response given: −0.256

Challenge: Lab note: need Dose.FC.LYZ.NS (log2 fold change) with ENR+CD organoids (ISC to Paneth cell differentiation) for entry C#Cc1cccc(Nc2ncnc3cc4c(cc23)OCCOCCOCCO4)c1 [Icotinib] , please look it up.
Response given: −0.289

Challenge: Lab note: need Dose.FC.LYZ.NS (log2 fold change) with ENR+CD organoids (ISC to Paneth cell differentiation) for entry CNC(=O)[C@H](Cc1c[nH]c2ccccc12)NC(=O)[C@@H](CC(=O)NO)CC(C)C [Ilomastat (GM6001, Galardin)] , please look it up.
Response given: −0.106

Challenge: Lab note: need Dose.FC.LYZ.NS (log2 fold change) with ENR+CD organoids (ISC to Paneth cell differentiation) for entry CC#CCn1c(N2CCC[C@@H](N)C2)nc2c1c(=O)n(Cc1nc(C)c3ccccc3n1)c(=O)n2C [Linagliptin] , please look it up.
Response given: 0.080

* * *

Test system: ENR+CD organoids
Test: Primary screen: ATP (CellTiter-Glo 3D, CTG) cell number/viability, 2.5-D 384-well ENR+CD organoids;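 further: compounds given at plating and again on day 3 over a 6-day differentiation from ENR+CV stem-cell-enriched precursors, ATP measured on day 6, plate median as control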
Conditions: primary screen, dose 0.08 uM, FC relative to plate median
Lab note: cut-off is 0.1 log2 fold change. Strictly less in Dose.FC.CTG is Met. Exactly 0.1 log2 fold change or more is Not met.

Challenge: Field: below-cutoff. Rule: recorded Dose.FC.CTG strictly less than 0.1 log2 fold change. Subject: CN(C)CCc1c[nH]c2ccc(Cn3cncn3)cc12 [Rizatriptan Benzoate]
Response given: Not met

Challenge: Field: below-cutoff. Rule: recorded Dose.FC.CTG strictly less than 0.1 log2 fold change. Subject: CCCc1nc2c(C)cc(-c3nc4ccccc4n3C)cc2n1Cc1ccc(-c2ccccc2C(=O)O)cc1 [Telmisartan]
Response given: Not met

Challenge: Field: below-cutoff. Rule: recorded Dose.FC.CTG strictly less than 0.1 log2 fold change. Subject: Cc1ccc(C(=O)N(CCCN)[C@@H](c2oc3cc(Cl)ccc3c(=O)c2Cc2ccccc2)C(C)C)cc1 [SB743921]
Response given: Met

Challenge: Field: below-cutoff. Rule: recorded Dose.FC.CTG strictly less than 0.1 log2 fold change. Subject: Cc1cc(OCCCS(C)(=O)=O)cc(C)c1-c1cccc(COc2ccc3c(c2)OC[C@H]3CC(=O)O)c1 [TAK-875]
Response given: Not met

Challenge: Field: below-cutoff. Rule: recorded Dose.FC.CTG strictly less than 0.1 log2 fold change. Subject: CO[C@H]1C[C@@H]2CC[C@@H](C)[C@@](O)(O2)C(=O)C(=O)N2CCCC[C@H]2C(=O)O[C@H]([C@H](C)C[C@@H]2CC[C@@H](OP(C)(C)=O)[C@H](OC)C2)CC(=O)[C@H](C)/C=C(\C)[C@@H](O)[C@@H](OC)C(=O)[C@H](C)C[C@H](C)/C=C/C=C/C=C/1C [Ridaforolimus (Deforolimus, MK-8669)]
Response given: Not met

Challenge: Field: below-cutoff. Rule: recorded Dose.FC.CTG strictly less than 0.1 log2 fold change. Subject: COc1c(C)c(C(=O)c2ccc(N)c(C(=O)[O-])c2)n2ccccc12.[Na+] [SSR128129E]
Response given: Met
